B1: TRIM15 (parent)
chain: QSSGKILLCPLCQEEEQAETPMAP

Variants of: B1
Experiment: protein stability index of a GFP-peptide fusion (GPS, HEK-293T) (PSI 1-6); higher = more stable;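 note: lentivirally expressed fusions sorted by FACS into six bins by GFP to DsRed ratio, PSI derived from sequencing read proportions per bin multiplied by bin number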
Settings: c terminus: a fixed tail appended
METRIC NAME: protein stability index
I only need the number, thanks.

Here's what some known entries look like.
INSERT INTO results (record_sequence, readout_value) VALUES
  ('QSSGKPLLCPLCQEEEQAETPMAP [I6P]', 4.11),
  ('QSSGKILLCPLCQEEEQAETPFAP [M22F]', 2.86),
  ('QSSGKILLCPLCQEEEQAEAPMAP [T20A]', 3.65),
  ('QSSGKILLCPLCQEYEQAETPMAP [E15Y]', 2.53),
  ('QSSGVILLCPLCQEEEQAETPMAP [K5V]', 2.85),
  ('QSSGKILLCPLCQEEEQAETPMQP [A23Q]', 3.21),
  ('QSSGKILLCPLCMEEEQAETPMAP [Q13M]', 2.84),
  ('QSSGKILLCPLCQWEEQAETPMAP [E14W]', 1.73);

q: Would you kindly share the measured protein stability index for QSHGKILLCPLCQEEEQAETPMAP [S3H] ?
a: 2.99

q: What do you get for QSSGKILLCPLCQEEEQAETPLAP [M22L] ?
a: 4.28

q: Same again, this time with QSGGKILLCPLCQEEEQAETPMAP [S3G]
a: 3.34
